Where these numbers come from: ChEMBL document CHEMBL5723035

molecular target: Bromodomain-containing protein 4 (Homo sapiens, UniProt O60885); test: Affinity Biochemical interaction: (TR-FRET) EUB0002661a BRD4
pIC50: −log10 of the molar value.

STRUCTURE AS SMILES | pIC50
Cc1nnn(C)c1-c1cnc2c3cc4cnn(C)c4cc3n([C@H](c3ccccc3)C3CCOCC3)c2c1 | 8.57

----------
Target: Calpain-2 catalytic subunit (Homo sapiens)
Sequence (P17655 whole entry): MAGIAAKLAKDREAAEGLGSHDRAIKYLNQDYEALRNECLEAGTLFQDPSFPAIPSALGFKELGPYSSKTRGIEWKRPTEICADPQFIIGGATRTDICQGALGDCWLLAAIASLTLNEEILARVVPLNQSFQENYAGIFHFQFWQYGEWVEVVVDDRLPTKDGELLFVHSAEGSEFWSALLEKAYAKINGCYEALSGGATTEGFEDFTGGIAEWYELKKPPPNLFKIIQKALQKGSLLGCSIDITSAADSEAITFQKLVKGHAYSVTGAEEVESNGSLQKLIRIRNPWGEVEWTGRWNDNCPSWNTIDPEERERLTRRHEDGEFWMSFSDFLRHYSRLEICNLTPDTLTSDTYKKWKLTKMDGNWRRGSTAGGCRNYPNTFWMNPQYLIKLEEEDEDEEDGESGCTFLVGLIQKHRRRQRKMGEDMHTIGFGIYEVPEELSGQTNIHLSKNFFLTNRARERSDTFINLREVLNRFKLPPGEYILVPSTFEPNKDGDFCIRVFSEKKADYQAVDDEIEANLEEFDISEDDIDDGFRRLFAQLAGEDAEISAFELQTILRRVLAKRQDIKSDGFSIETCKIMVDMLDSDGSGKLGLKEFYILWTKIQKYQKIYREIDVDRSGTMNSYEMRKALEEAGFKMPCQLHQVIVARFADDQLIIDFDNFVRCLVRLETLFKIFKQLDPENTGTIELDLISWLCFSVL
Assay: Affinity Biochemical interaction: (Colorimetric assay, lysis of casein substrate and analysis of protease inhibition by reading wavelength at 595 nm) EUB0002195a CAPN2
Type: functional
Design: mode of action Inhibitor, recommended concentration 1 uM
pIC50: −log10 of the molar value.
READOUT TYPE: pIC50

STRUCTURE AS SMILES | TARGET ENTITY | OBSERVED
CC(C)C[C@@H](C=O)NC(=O)[C@@H](NS(=O)(=O)c1ccc(F)cc1)C(C)C | Calpain-2 catalytic subunit (Homo sapiens) | 7.11

----------
biological target: UniProt P53985; assay: Affinity Biochemical interaction: (Displacement of radiolabelled [3H]-BAY-8002) EUB0001677b SLC16A1
Sequence (P53985 whole entry): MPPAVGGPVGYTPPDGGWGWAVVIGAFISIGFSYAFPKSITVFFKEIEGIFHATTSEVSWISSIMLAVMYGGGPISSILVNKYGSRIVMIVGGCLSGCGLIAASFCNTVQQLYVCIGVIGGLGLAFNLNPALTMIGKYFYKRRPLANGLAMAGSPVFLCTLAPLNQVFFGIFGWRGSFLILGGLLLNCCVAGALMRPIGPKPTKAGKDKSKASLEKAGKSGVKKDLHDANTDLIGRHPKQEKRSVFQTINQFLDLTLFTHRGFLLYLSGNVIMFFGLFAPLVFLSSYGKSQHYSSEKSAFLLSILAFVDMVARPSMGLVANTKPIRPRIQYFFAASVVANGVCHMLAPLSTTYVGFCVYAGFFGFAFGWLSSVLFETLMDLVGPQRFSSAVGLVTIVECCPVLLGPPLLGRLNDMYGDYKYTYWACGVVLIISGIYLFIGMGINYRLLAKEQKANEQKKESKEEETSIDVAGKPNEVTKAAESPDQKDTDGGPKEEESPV
READOUT TYPE: IC50 (nM)

STRUCTURE AS SMILES | READOUT TYPE | OBSERVED
O=C(Nc1ccccc1C(=O)O)c1cc(S(=O)(=O)c2ccccc2)ccc1Cl | IC50 | 11

----------
biological target: Caspase-9 (Homo sapiens, UniProt P55211); experiment: Affinity Biochemical interaction: (peptide substrate detection probe bound to magnetic beads, detection of liberated fluorophores) EUB0002203aAD CASP9
Sequence (P55211 1-315 limits assumed): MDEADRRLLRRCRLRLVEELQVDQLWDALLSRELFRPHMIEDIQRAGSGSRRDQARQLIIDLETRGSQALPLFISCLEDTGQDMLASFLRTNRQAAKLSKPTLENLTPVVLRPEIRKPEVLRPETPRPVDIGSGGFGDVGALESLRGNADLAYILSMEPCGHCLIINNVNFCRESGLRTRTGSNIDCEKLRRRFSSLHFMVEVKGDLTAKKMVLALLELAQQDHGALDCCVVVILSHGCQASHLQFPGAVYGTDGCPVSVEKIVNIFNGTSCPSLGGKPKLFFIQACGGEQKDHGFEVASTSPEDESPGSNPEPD
Sequence (P55211 331-416 limits assumed): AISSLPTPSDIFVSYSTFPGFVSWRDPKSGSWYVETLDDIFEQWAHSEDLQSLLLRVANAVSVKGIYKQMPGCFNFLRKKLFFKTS
pIC50: −log10 of the molar value. Residues, ends and D or L forms follow the SMILES beside them. *: point of attachment. CH2Cl = ClC*
READOUT TYPE: pIC50

MOLECULE | OBSERVED
CC(=O)N[C@@H](CC(C)C)C(=O)N[C@@H](CCC(=O)O)C(=O)N[C@@H](Cc1cnc[nH]1)C(=O)N[C@@H](CC(=O)O)C(=O)CCl (Ac-LEHD-CH2Cl) | 7.14

----------
target: Protein-arginine deiminase type-4 (Homo sapiens); assay: Affinity Biochemical interaction: (enzyme inhibition, detection of citrullated histone H3 by either immunoblot with LiC or quantitation or an ELISA-based assay using anti-citrullated histone H3 rabbit polyclonal antibody) EUB0002517a PADI4
Sequence (Q9UM07 whole entry): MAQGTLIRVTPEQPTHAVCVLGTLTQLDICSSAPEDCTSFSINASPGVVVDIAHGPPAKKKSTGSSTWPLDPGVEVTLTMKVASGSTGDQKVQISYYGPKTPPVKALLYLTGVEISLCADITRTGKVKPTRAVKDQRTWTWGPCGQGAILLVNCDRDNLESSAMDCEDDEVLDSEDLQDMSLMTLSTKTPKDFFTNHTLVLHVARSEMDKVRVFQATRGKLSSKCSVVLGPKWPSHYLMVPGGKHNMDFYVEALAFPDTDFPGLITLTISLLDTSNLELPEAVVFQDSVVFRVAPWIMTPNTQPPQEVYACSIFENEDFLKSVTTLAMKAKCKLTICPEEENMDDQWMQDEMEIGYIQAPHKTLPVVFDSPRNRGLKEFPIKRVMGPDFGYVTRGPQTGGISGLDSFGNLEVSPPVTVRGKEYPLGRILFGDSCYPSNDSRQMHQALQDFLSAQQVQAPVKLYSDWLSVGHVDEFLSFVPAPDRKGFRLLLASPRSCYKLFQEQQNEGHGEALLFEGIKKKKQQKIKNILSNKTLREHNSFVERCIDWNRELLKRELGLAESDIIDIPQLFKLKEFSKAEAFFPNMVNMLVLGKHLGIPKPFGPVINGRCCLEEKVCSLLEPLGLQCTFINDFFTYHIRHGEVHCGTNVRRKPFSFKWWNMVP
pIC50: −log10 of the molar value.

STRUCTURE AS SMILES | pIC50
COc1cc(C(=O)N2C[C@H](N)CC[C@@H]2C)cc2nc(-c3cc4cccnc4n3CC3CC3)n(C)c12 | 7.01

----------
molecular target: WD repeat-containing protein 5 (Homo sapiens); experiment: Affinity Biochemical interaction: (TR-FRET) EUB0002166aAD WDR5; assay type: functional; set-up: mode of action Inhibitor, recommended concentration 1 uM

STRUCTURE AS SMILES | Ki (nM)
Cc1nc(F)ccc1-c1cc(Cn2ccn(C)c2=N)cc(C(=O)NCc2ccc(Cl)c(Cl)c2)c1 | 0.106

----------
target: Histone-arginine methyltransferase CARM1 (Homo sapiens); assay: Affinity Biochemical interaction: (enzymatic assay (inhibition of methyl transfer from radiolabelled substrate [3H]SAM to peptide)) EUB0002245aCl CARM1
Sequence (Q86X55 whole entry): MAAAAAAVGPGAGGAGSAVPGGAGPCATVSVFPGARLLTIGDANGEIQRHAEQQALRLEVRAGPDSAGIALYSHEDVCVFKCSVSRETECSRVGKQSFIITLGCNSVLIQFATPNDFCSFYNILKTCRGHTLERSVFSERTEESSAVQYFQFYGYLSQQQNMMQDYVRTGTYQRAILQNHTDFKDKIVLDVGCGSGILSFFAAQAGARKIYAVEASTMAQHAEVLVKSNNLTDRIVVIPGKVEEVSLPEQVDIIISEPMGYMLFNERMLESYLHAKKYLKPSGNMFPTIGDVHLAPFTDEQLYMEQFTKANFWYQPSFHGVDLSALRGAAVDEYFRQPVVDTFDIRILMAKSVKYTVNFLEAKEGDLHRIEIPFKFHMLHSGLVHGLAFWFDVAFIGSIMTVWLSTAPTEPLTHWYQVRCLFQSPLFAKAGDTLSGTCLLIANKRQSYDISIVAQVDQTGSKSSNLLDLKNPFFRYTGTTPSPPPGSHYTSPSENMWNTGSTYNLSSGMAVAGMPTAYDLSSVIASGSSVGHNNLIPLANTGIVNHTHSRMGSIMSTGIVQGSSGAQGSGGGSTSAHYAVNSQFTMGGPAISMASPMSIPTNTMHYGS
READOUT TYPE: Ki

STRUCTURE AS SMILES | OBSERVED
CCOCC1(COCC)CCC(c2n[nH]cc2CN(C)CCNC)CC1 | 19 nM

----------
target: UniProt:Q05940; assay: Affinity Biochemical interaction: (Inhibition of radiolabelled [3H]dopamine uptake) EUB0002590aCl SLC18A2
Sequence (Q05940 whole entry): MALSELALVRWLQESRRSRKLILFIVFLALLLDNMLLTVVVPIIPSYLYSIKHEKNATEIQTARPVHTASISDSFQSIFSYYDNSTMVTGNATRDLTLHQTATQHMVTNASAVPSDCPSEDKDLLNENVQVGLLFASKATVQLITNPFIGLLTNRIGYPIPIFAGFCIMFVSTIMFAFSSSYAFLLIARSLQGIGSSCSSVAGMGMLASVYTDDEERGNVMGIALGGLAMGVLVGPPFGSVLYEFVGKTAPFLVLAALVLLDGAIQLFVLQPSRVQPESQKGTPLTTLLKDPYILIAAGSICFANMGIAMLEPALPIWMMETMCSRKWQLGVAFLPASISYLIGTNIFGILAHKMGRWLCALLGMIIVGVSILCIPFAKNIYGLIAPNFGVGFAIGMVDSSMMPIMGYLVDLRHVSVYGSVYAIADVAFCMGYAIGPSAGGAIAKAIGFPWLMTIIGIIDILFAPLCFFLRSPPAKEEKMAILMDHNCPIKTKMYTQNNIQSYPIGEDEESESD
pKi: −log10 of the molar value.

STRUCTURE AS SMILES | pKi
COc1ccc(CC[C@H]2CCC[C@@H](CCc3ccc(OC)cc3)N2C[C@@H](O)CO)cc1 | 7.54

----------
target: Nucleotide triphosphate diphosphatase NUDT15 (Homo sapiens); assay: Affinity Biochemical interaction: (enzyme-coupled MG (Malachite Green) assay with 6-thio-dGTP) EUB0002330a NUDT15; format: functional; set-up: mode of action Inhibitor, recommended concentration 1 uM
Sequence (Q9NV35 whole entry): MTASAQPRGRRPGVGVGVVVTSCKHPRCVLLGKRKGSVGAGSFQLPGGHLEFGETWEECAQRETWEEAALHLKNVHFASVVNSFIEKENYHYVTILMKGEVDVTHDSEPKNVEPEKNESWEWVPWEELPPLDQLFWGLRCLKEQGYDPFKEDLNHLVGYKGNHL
READOUT TYPE: IC50 (nM)

STRUCTURE AS SMILES | OBSERVED
O=C(c1ccc2[nH]ccc2c1)N1CCN(S(=O)(=O)c2ccc3[nH]c(=O)oc3c2)CC1 | 57

----------
molecular target: Bromodomain-containing protein 4 (Homo sapiens); assay: Affinity Biochemical interaction: (AlphaLISA) EUB0002282a BRD4; assay type: functional; design: mode of action Inhibitor, recommended concentration 1 uM

STRUCTURE AS SMILES | MEASUREMENT UNIT | Kd
Cc1cc(-c2ccc3nc(C4CCOCC4)n(CCOC(F)(F)F)c3c2)cn(C)c1=O | nM | 6.5

----------
Molecular target: Ubiquitin carboxyl-terminal hydrolase 30 (Homo sapiens)
Sequence (Q70CQ3 whole entry): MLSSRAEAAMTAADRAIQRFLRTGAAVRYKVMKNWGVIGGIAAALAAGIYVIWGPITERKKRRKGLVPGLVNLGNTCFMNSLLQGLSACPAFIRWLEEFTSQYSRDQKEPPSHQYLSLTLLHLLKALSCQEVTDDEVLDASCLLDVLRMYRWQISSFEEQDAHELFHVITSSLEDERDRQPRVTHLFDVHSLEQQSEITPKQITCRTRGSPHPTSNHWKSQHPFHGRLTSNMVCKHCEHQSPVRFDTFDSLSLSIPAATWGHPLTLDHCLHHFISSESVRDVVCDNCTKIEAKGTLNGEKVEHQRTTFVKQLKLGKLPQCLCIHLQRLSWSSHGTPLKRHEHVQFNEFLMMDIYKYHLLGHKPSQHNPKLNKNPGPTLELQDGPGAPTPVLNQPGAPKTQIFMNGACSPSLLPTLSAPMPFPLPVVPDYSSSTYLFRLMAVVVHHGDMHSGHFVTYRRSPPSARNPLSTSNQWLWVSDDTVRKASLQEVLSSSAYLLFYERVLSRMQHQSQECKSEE
pIC50: −log10 of the molar value.
READOUT TYPE: pIC50

STRUCTURE AS SMILES | READOUT TYPE | OBSERVED
COc1ccc(-c2csc(N(C)C(=O)[C@@H]3CCCN3C#N)n2)nc1C#N | pIC50 | > 7.00

----------
target: Cathepsin B (Homo sapiens, UniProt P07858); test: Affinity Biochemical interaction: (Colorimetric assay, lysis of casein substrate and analysis of protease inhibition by reading wavelength at 595 nm) EUB0002195a CTSB

STRUCTURE AS SMILES | MEASUREMENT UNIT | IC50
CC(C)C[C@@H](C=O)NC(=O)[C@@H](NS(=O)(=O)c1ccc(F)cc1)C(C)C | nM | 15

----------
target: Caspase-1 (Homo sapiens, UniProt P29466); test: Affinity Biochemical interaction: (enzymatic assay (fluorogenic substrate cleavage)) EUB0002190aAD CASP1
Sequence (P29466 120-297 limits assumed): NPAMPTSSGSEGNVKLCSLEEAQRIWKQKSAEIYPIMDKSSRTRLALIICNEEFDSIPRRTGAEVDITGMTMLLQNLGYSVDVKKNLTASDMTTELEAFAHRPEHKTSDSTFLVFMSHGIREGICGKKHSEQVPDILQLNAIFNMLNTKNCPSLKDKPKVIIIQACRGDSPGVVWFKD
Sequence (P29466 317-404 limits assumed): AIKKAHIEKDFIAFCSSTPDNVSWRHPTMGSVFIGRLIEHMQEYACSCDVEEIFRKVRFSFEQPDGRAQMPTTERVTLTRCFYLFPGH
Residues, ends and D or L forms follow the SMILES beside them. *: point of attachment. Boc = CC(C)(C)OC(=O)*
READOUT TYPE: Ki

COMPOUND | OBSERVED
CC(C)[C@H](NC(=O)[C@H](CCC(=O)O)NC(=O)[C@H](C)NC(=O)OC(C)(C)C)C(=O)N[C@H](C=O)CC(=O)O (Boc-AEVD-aldehyde) | < 12 nM

----------
target: UniProtKB O95251; experiment: Affinity Biochemical interaction: (AlphaScreen) EUB0001094a MYST2
Sequence (O95251 whole entry): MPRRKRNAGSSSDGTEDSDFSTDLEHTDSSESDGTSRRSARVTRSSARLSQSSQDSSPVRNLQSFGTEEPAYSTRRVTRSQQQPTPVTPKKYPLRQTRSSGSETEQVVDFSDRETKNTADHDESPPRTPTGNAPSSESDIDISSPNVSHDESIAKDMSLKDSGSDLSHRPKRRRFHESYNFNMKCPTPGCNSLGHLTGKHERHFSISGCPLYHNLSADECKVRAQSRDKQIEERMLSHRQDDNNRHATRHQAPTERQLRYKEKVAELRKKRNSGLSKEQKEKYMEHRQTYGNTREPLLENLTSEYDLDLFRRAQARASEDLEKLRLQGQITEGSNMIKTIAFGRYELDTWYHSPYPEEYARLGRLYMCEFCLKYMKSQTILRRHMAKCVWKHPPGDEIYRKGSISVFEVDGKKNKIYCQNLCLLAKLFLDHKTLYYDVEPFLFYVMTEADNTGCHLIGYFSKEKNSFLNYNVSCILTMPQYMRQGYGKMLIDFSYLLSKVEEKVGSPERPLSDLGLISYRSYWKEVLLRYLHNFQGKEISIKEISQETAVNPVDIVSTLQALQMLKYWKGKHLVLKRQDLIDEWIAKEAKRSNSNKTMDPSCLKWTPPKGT
READOUT TYPE: IC50 (nM)

STRUCTURE AS SMILES | READOUT TYPE | OBSERVED
Cc1cc(-c2ccccc2)cc(C(=O)NNS(=O)(=O)c2cccc(O)c2)c1F | IC50 | 30
